Target: CRBN (Homo sapiens)
Construct: endogenous in cells; host or cells: primary human T cells / CD8+ T cells from peripheral blood
Sequence (Q96SW2 whole entry): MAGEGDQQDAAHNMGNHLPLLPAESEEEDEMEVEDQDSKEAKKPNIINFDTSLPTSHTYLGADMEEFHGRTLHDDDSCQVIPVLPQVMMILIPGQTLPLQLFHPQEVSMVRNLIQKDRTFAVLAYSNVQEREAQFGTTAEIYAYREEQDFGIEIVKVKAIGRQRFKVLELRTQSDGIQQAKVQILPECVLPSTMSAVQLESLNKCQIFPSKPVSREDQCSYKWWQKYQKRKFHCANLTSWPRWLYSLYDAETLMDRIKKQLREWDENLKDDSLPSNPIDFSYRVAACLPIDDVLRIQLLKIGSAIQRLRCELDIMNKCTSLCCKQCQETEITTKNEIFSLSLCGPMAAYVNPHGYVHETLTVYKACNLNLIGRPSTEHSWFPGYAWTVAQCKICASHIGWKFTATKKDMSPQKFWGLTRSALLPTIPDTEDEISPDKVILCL
Test: Western blot for expression of CRBN relative to vinculin in human T cells (CRBN degradation)
Type: cell-based
Conditions: 24 h, 10nM; human T cells, 24 hours; read-out: Relative Density of CRBN (% of DMSO)
PROPERTY NAME: remaining activity at 0.01 µM (%)

Would you please look over these solved cases?
compound="O=C1CCC(N2Cc3c(CCCOCCOCCOCCOCCOCCCc4cccc5c4CN(C4CCC(=O)NC4=O)C5=O)cccc3C2=O)C(=O)N1 (stereo not shown)" measured_value=56.8
compound="O=C1CCC(N2Cc3c(C#CCOCCOCC#Cc4cccc5c4CN(C4CCC(=O)NC4=O)C5=O)cccc3C2=O)C(=O)N1 (stereo not shown)" measured_value=1.75

(1) Cc1nc2cccc(NCc3cccc(CNc4cccc5nc(C)n(C6CCC(=O)NC6=O)c(=O)c45)n3)c2c(=O)n1C1CCC(=O)NC1=O (stereo not shown)
(2) O=C1CCC(N2C(=O)c3cccc(NC(=O)CCCC(=O)Nc4cccc5c4C(=O)N(C4CCC(=O)NC4=O)C5=O)c3C2=O)C(=O)N1 (stereo not shown)
query: Sorting by remaining activity at 0.01 µM in descending order, would 1 or 2 appear first? I would appreciate it if you answered with the label of your choice.
result: 2
(2: 114%, 1: 54.2%)

====

Target: UniProtKB Q96SW2
Experiment: Kd and % inhibition from FI
Type: binding
Settings: FI; read-out: Kd (FI) (converted)
PROPERTY NAME: Kd (µM)

molecule="O=C1CCC(N2Cc3c(CCCOCCOCCOCCOCCCc4cccc5c4CN(C4CCC(=O)NC4=O)C5=O)cccc3C2=O)C(=O)N1 (stereo not drawn) [SM2-139]" value_units=µM measured_value=9.38
molecule="O=C(COc1cccc2c1C(=O)N(C1CCC(=O)NC1=O)C2=O)NCCOCCOCCNC(=O)COc1cccc2c1C(=O)N(C1CCC(=O)NC1=O)C2=O (stereo not drawn) [SM2-048]" value_units=µM measured_value=11.3
molecule="O=C1CCC(N2Cc3c(NC(=O)CCCCCCCCC(=O)Nc4cccc5c4CN(C4CCC(=O)NC4=O)C5=O)cccc3C2=O)C(=O)N1 (stereo not drawn) [EC1-152]" value_units=µM measured_value=15.5

(A) O=C(/C=C/c1cccc2c1CN(C1CCC(=O)NC1=O)C2=O)NCCOCCOCCNC(=O)/C=C/c1cccc2c1CN(C1CCC(=O)NC1=O)C2=O (stereo not drawn) [SM3-003]
(B) O=C(/C=C/c1cccc2c1CN(C1CCC(=O)NC1=O)C2=O)NCCOCCOCCOCCNC(=O)/C=C/c1cccc2c1CN(C1CCC(=O)NC1=O)C2=O (stereo not drawn) [SM3-009]
(C) O=C1CC[C@H](N2Cc3c(C#CCOCCOCC#Cc4cccc5c4CN([C@H]4CCC(=O)NC4=O)C5=O)cccc3C2=O)C(=O)N1 [XS01-008B2]
query: Rank the 3 molecules: largest Kd first, smallest last. Would you mind listing the labels in the order asked for?
result: A, B, C
(A: 14.3 µM, B: 8.21 µM, C: 2.53 µM)

(P) O=C1CCC(N2Cc3c(NC(=O)CCCCCCC(=O)Nc4cccc5c4CN(C4CCC(=O)NC4=O)C5=O)cccc3C2=O)C(=O)N1 (stereo not drawn) [EC1-150]
(Q) O=C1CCC(N2Cc3c(CCCOCCOCCCc4cccc5c4CN(C4CCC(=O)NC4=O)C5=O)cccc3C2=O)C(=O)N1 (stereo not drawn) [SM2-145]
(R) O=C1CCC(N2Cc3c(CCCOCCOCCOCCOCCOCCCc4cccc5c4CN(C4CCC(=O)NC4=O)C5=O)cccc3C2=O)C(=O)N1 (stereo not drawn) [SM2-156]
query: # desc sort on Kd across 3 molecules Your reply should list the labels following the order given in the request.
result: P, R, Q
(P: 18.3 µM, R: 11.2 µM, Q: 6.59 µM)

(I) O=C1CCC(N2Cc3c(NC(=O)CCCCCCCC(=O)Nc4cccc5c4CN(C4CCC(=O)NC4=O)C5=O)cccc3C2=O)C(=O)N1 (stereo not drawn) [EC1-151]
(II) O=C1CCC(N2Cc3c(CCCOCCCc4cccc5c4CN(C4CCC(=O)NC4=O)C5=O)cccc3C2=O)C(=O)N1 (stereo not drawn) [SM2-144]
(III) O=C1CCC(N2Cc3c(NC(=O)CCCC(=O)Nc4cccc5c4CN(C4CCC(=O)NC4=O)C5=O)cccc3C2=O)C(=O)N1 (stereo not drawn) [EC1-148]
query: Order the records, beginning with the lowest Kd and ending with the highest. I'd appreciate it if you listed the labels in the requested order.
result: II, I, III

====

Target: CRBN (Homo sapiens)
Construct: endogenous in cells; host or cells: primary human T cells / CD8+ T cells from peripheral blood
Test: Western blot for expression of CRBN relative to vinculin in human T cells (CRBN degradation)
Assay type: cell-based
Conditions: 24 h, 10nM; human T cells, 24 hours; read-out: Relative Density of CRBN (% of DMSO)
PROPERTY NAME: remaining activity at 0.01 µM (%)

The examples below pair each entry with its known result.
molecule="O=C1CCC(N2Cc3c(C#CCCCC(=O)Nc4cccc5c4CN(C4CCC(=O)NC4=O)C5=O)cccc3C2=O)C(=O)N1 (stereo not drawn)" measured_value=85.6
molecule="O=C(/C=C/c1cccc2c1CN(C1CCC(=O)NC1=O)C2=O)NCCOCCNC(=O)/C=C/c1cccc2c1CN(C1CCC(=O)NC1=O)C2=O (stereo not drawn)" measured_value=110

(a) O=C1CCC(N2Cc3c(CCCOCCOCCOCCOCCCc4cccc5c4CN(C4CCC(=O)NC4=O)C5=O)cccc3C2=O)C(=O)N1 (stereo not drawn)
(b) Cc1nc2cccc(CCc3ccc(CCc4cccc5nc(C)n(C6CCC(=O)NC6=O)c(=O)c45)cc3)c2c(=O)n1C1CCC(=O)NC1=O (stereo not drawn)
(c) Cc1nc2cccc(NC(=O)CCc3cn(CC(=O)Nc4cccc5nc(C)n(C6CCC(=O)NC6=O)c(=O)c45)nn3)c2c(=O)n1C1CCC(=O)NC1=O (stereo not drawn)
(d) O=C(COc1cccc2c1C(=O)N(C1CCC(=O)NC1=O)C2=O)NCCOCCOCCNC(=O)COc1cccc2c1C(=O)N(C1CCC(=O)NC1=O)C2=O (stereo not drawn)
query: Given 4 molecules, produce a descending ranking by remaining activity at 0.01 µM. As an answer, provide the labels arranged in the order called for.
result: c, d, a, b
(c: 199%, d: 99.5%, a: 44.3%, b: 29%)

====

Biological target: CRBN (Homo sapiens)
Construct: endogenous in cells; host or cells: primary human T cells / CD8+ T cells from peripheral blood
Experiment: Western blot for expression of CRBN relative to vinculin in human T cells (CRBN degradation)
Type: cell-based
Details: grade (+) to (++++) or words; key not given
PROPERTY NAME: CRBN Degradation ** (WB)

compound="O=C1CCC(N2Cc3ccc(NC(=O)CCCC(=O)Nc4ccc5c(c4)C(=O)N(C4CCC(=O)NC4=O)C5)cc3C2=O)C(=O)N1 (stereo not shown)" experimental_system="CRBN (Homo sapiens)" measured_value="No degradation"
compound="Cc1nc2cccc(C#CCOCCOCCOCC#Cc3cccc4nc(C)n(C5CCC(=O)NC5=O)c(=O)c34)c2c(=O)n1C1CCC(=O)NC1=O (stereo not shown)" experimental_system="CRBN (Homo sapiens)" measured_value="No Degradation"
compound="Cc1nc2c(NC(=O)c3ccc(C(=O)Nc4cccc5c(=O)n(C6CCC(=O)NC6=O)c(C)nc45)cc3)cccc2c(=O)n1C1CCC(=O)NC1=O (stereo not shown)" experimental_system="CRBN (Homo sapiens)" measured_value="No Degradation"
compound="Cc1nc2cccc(CCc3ccc(CCc4cccc5nc(C)n(C6CCC(=O)NC6=O)c(=O)c45)cc3)c2c(=O)n1C1CCC(=O)NC1=O (stereo not shown)" experimental_system="CRBN (Homo sapiens)" measured_value="No degradation"

====

Target: CRBN (Homo sapiens)
Construct: endogenous in cells; host or cells: primary human T cells / CD8+ T cells from peripheral blood
Assay: Western blot for expression of CRBN relative to vinculin in human T cells (CRBN degradation)
Format: cell-based
Conditions: 10uM; read-out: Relative Density of CRBN (% of DMSO)
PROPERTY NAME: remaining activity at 10 µM (%)

Below: 2 compounds and their reported remaining activity at 10 µM.
compound="Cc1nc2cccc(NC(=O)CCCCC(=O)Nc3cccc4nc(C)n(C5CCC(=O)NC5=O)c(=O)c34)c2c(=O)n1C1CCC(=O)NC1=O (stereo not shown)" experimental_system="CRBN (Homo sapiens)" value_units=% measured_value=58.1
compound="Cc1nc2c(NCc3ccc(CNc4cccc5c(=O)n(C6CCC(=O)NC6=O)c(C)nc45)cc3)cccc2c(=O)n1C1CCC(=O)NC1=O (stereo not shown)" experimental_system="CRBN (Homo sapiens)" value_units=% measured_value=93

(P) O=C1CCC(N2Cc3c(CCCCCC(=O)Nc4cccc5c4CN(C4CCC(=O)NC4=O)C5=O)cccc3C2=O)C(=O)N1 (stereo not shown)
(Q) Cc1nc2cccc(NCc3cccc(CNc4cccc5nc(C)n(C6CCC(=O)NC6=O)c(=O)c45)n3)c2c(=O)n1C1CCC(=O)NC1=O (stereo not shown)
query: Please tell me which of the two, P or Q , has the higher reported remaining activity at 10 µM value. Selection: enter the item's label.
result: Q
